Hey, just so you know, these numbers are from PubChem BioAssay AID2546.

# PROCEDURE_SUMMARY: VP16 counterscreen qHTS for inhibitors of ROR gamma transcriptional activity;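 note: Gal4-VP16 expression switched on by copper sulfate through the metallothionein promoter; nearly all actives have a fitted effect of over 50% in size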
# APPLIED_CONDITIONS: Drosophila S2 Gal4-VP16 UAS-luciferase, luminescence, 20 h; series mostly up to 53.6 µM
The campaign covered roughly 310,000 compounds. About 11,000 (3.5%) were called active. Another 8% or so got no clear call; they are omitted. Calls come from the whole dose curve; as a rule, active = well fitted inhibition curve with a large enough effect; inconclusive = small, poorly fitted or top-dose-only effect, or effect the other way; inactive = flat fitted curve, though single readings scatter. The list comes from a sample in which actives are over-represented; it also holds close analogues and randomly drawn compounds.
Pick from active, inactive when you respond.

Test call for this compound, please: Clc1ccc(CN2CCN(/N=C/c3cccnc3)CC2)cc1
inactive

// param item: OC(COc1ccc2ccccc2c1)CN1CCOCC1 (configuration not stated) ; yields the recorded call
inactive

Would you mind telling me which call this test gave Cc1cccc(-c2nc(Nc3ccc(O)cc3)c3ccccc3n2)c1 ?
inactive

Call for entry O=C1/C(=C\c2cccnc2)CN(Cc2ccccc2)C/C1=C\c1cccnc1 :
active

Each compound tested received a call. Report the one for Cc1ccc(Cn2ccc(NC(=O)c3cc(C(C)C)on3)n2)cc1 .
inactive

GET /call?item= c1ccc2c(Nc3ccncc3)nc(-c3ccc4c(c3)OCO4)nc2c1 returns the recorded outcome of this test.
active

Record request — test call for c1ccc2c(Nc3ccncc3)nc(-c3ccoc3)nc2c1
inactive

What classification did O=Cc1cn(Cc2ccccc2)nc1-c1cccnc1 end up with in this test?
inactive

# fetch the recorded call for Cc1nc2sc(C(c3ccco3)N3CCOCC3)c(O)n2n1 (configuration not stated) here
inactive

Dear all, I need the recorded test outcome for Cc1c(C(=O)N2CCCc3ccccc32)oc2ccccc12 , thank you.
inactive

Call for entry COc1ccc(OC)c(NC(=O)CN(C)CCOc2ccc(Br)cc2)c1 :
inactive

Could you please tell me the result logged for O=C(Nc1ccn(Cc2ccccc2)n1)c1n[nH]c([N+](=O)[O-])c1Cl in this assay?
active
